Item-by-item account of pKd
TESTED TARGET: GDP-bound KRAS wild-type protein (Homo sapiens, UniProt P01116)
Sequence (P01116 1-188 isoform P01116-2): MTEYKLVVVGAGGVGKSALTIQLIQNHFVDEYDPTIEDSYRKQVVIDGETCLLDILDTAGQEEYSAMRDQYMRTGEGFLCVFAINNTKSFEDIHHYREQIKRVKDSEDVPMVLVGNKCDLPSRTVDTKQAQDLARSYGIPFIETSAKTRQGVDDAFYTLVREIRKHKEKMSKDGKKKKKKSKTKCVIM
ASSAY PROCEDURE: Binding to KRAS by surface plasmon resonance (SPR), dissociation constant KD
ASSAY CONTEXT: 1:1 binding model
Where a SMILES comes first, the peptide text is derived from it. Bridges are numbered along the chain shown (N, C = ends). [ ]: non-standard residue; d: D form. hPhe(3-Cl-4-CF3) = N[C@@H](CCc1ccc(C(F)(F)F)c(Cl)c1)C(=O)O; NPrPhe(4-CF3) = CCCN[C@@H](Cc1ccc(C(F)(F)F)cc1)C(=O)O; NMeGly(cPent) = CN[C@H](C(=O)O)C1CCCC1; Pro(4,4-F2) = O=C(O)[C@@H]1CC(F)(F)CN1; NMeL = CN[C@@H](CC(C)C)C(=O)O; Aze = O=C(O)[C@@H]1CCN1; Ac4c = NC1(C(=O)O)CCC1; Sar = CNCC(=O)O
Keep in mind that pKd stands for -log10 of concentration in molar terms.

MOLECULE	pKd
CCCN1C(=O)CN(C)C(=O)[C@@H]2CCN2C(=O)[C@H]([C@@H](C)CC)NC(=O)[C@H](CC(C)C)N(C)C(=O)C[C@@H](C(=O)N(C)C)NC(=O)[C@H](C2CCCC2)N(C)C(=O)C2(CCC2)NC(=O)[C@@H]2CC(F)(F)CN2C(=O)[C@H](CCc2ccc(C(F)(F)F)c(Cl)c2)NC(=O)CN(C)C(=O)[C@@H]1Cc1ccc(C(F)(F)F)cc1 [PP0376] ([NMeL]I[Aze][Sar][NPrPhe(4-CF3)][Sar][hPhe(3-Cl-4-CF3)][Pro(4,4-F2)][Ac4c][NMeGly(cPent)]D-NMe2; lactam N-11)	8.70
CC[C@H](C)[C@@H]1NC(=O)[C@H](COC)N(C)C(=O)C[C@@H](C(=O)N(C)C)N(C)C(=O)[C@H](C2CCCC2)N(C)C(=O)C2(CC(C)(C)C2)NC(=O)[C@@H]2C[C@H](C)CN2C(=O)[C@H](CCc2ccc(C(F)(F)F)c(Cl)c2)NC(=O)CN(C)C(=O)[C@H](Cc2ccc(C)cc2)N2CC/C=C\C[C@@H](C2=O)N(C)C(=O)CN(C)C1=O [PP2502]	10.19
CCC(CC)[C@H]1C(=O)N(C)[C@H](C(=O)N(C)C)CC(=O)N(C)[C@@H](COC)C(=O)N[C@@H]([C@@H](C)CC)C(=O)N(C2CC2)CC(=O)N(C)[C@H]2C/C=C\CCN(C2=O)[C@@H](CC2CCCCC2)C(=O)N(C)CC(=O)N[C@@H](CCc2cc(F)c(C(F)(F)F)c(F)c2)C(=O)N2C[C@H](OC(C)C)C[C@H]2C(=O)NC2(CC(C)(C)C2)C(=O)N1C [PP2515]	8.29
CCO[C@@H]1C[C@H]2C(=O)NC3(CC(C)(C)C3)C(=O)N(C)[C@@H](C3CCCC3)C(=O)N(C)[C@H](C(=O)N(C)CC)CC(=O)N(C)[C@@H]([C@@H](C)OC)C(=O)N[C@@H]([C@@H](C)CC)C(=O)N(C)CC(=O)N(C)[C@H]3C/C=C\CCN(C3=O)[C@@H](Cc3ccc(C)cc3)C(=O)N(C)CC(=O)N[C@@H](CCc3cc(F)c(C(F)(F)F)c(F)c3)C(=O)N2C1 [PP3178]	10.04

Next item in the queue.
### Prompt I would be grateful if you could share the reported pKd for CCCO[C@@H]1C[C@H]2C(=O)NC3(CC(C)(C)C3)C(=O)N(C)[C@@H](C3CCCC3)C(=O)N(C)[C@H](C(=O)N(C)CC)CC(=O)N(C)[C@H]3CCCc4ccc(cc4)C[C@@H](C(=O)N(C)CC(=O)N[C@@H](CCc4ccc(C(F)(F)F)c(OC)c4)C(=O)N2C1)N1CC/C=C\C[C@@H](C1=O)N(C)C(=O)CN(C)C(=O)[C@H]([C@@H](C)CC)NC3=O [PP3083] .
### Response 10.11
